System: NCI-H322M lung
Experiment: NCI-60 one-dose screen, 48 h
Settings: 10 µM unless noted
Experimental: Growth inhibition of the NCI-H322M human Non-Small Cell Lung tumor cell line is measured as a screen for anti-cancer activity. Cells are grown in 96 well plates and exposed to the test compound for 48 hours. Compounds are tested at a single concentration, which is 10^-5 M for most compounds. The reported endpoint is percent growth (GI% or GIPRCNT), where numbers from 0 - 100% represent growth inhibition, and numbers from -100% - 0 represent cell death. […]
About 83,000 compounds went through this panel and 20% of them were active in at least one assay; those are over-represented in the sample as a whole. Calls of active or inactive are those of the source. How the source made its calls: active means growth percent below 10; inactive means the rest.
Write down the outcome that applies. Available outcomes: true = active, false = inactive

INPUT: Hi, do you know how O=C(Nc1cccc2[nH]c(C(F)(F)F)nc12)c1ccc(F)cc1 came out in this test?
OUTPUT: false

----------
System: PC-3 prostate
Assay: NCI-60 one-dose screen, 48 h (100 = growth as untreated, 0 = no growth, -100 = all killed)
Settings: 10 µM unless noted
This is part of a sample that, as a whole, favours compounds with a hit. Of some 83,000 tested, about 20% had one in any assay.
growth: recorded values
// note: answer is a bare numeric in %

In the examples that follow, each entry is paired with its recorded growth.
INPUT: Write down the reported growth (system: PC-3 prostate) of COc1ccc(/C(=C(\c2ccccc2)[N+](=O)[O-])c2ccc(OCCN3CCCC3)cc2)cc1
OUTPUT: 69.4

INPUT: Under PC-3 prostate: report growth of N/C(=N\O)c1ccncc1 .
OUTPUT: 102

INPUT: System PC-3 prostate. Read-out growth. Item Cn1c2c(cc(S(=O)(=O)c3ccccc3)c1=O)CCc1c-2cnn1-c1ccc(Cl)cc1 . Report value.
OUTPUT: 28.8

INPUT: Consider the compound O=C(O)CC1Cc2ccccc2C1C(=O)O (centres undefined) tested on PC-3 prostate; state its growth.
OUTPUT: 94.5

INPUT: Provide growth, system PC-3 prostate, entry CCCCCCCCCCCCOC(=O)/C=C\C(=O)NC(N)=O
OUTPUT: 71.6

INPUT: Provide the reported growth (system: PC-3 prostate) for Cc1ccnc2c(NC(C)CCCN)cc(O)c(O)c12 (centres undefined)
OUTPUT: 91.6

New cases:
INPUT: Send back PC-3 prostate growth of O=C(/C=C\c1ccc(NCc2ccc(C(=O)O)cc2)cc1)CCl only.
OUTPUT: 96.2

INPUT: Fill in: growth on PC-3 prostate, entry Cc1c(CN(C)C)cc(C(C)C)cc1C(C)C
OUTPUT: 109

INPUT: Specify growth for CCN(CC)C(=O)C1(C)CCCC2(C)c3cc(OC(C)=O)ccc3CCC12 (centres undefined) , system PC-3 prostate.
OUTPUT: 76.2

----------
Test system: NCI-H23 lung
Assay: NCI-60 one-dose screen, 48 h
Details: 10 µM unless noted
About 83,000 compounds went through this panel and 20% of them were active in at least one assay; those are over-represented in the sample as a whole. Active and inactive are the calls of the source. The calls were made as follows: active = growth percent below 10; inactive = the rest.
// allowed return values: true for active, false for inactive

Example results:
INPUT: Which result was noted for this compound in the test: CC(=O)OC1/C=C\CC/C=C\C1 (stereo not drawn)
OUTPUT: false

INPUT: Outcome? Cc1nc2ccccc2c(=O)n1-c1cccc(OCc2cn(-c3cccc(O)c3)nn2)c1
OUTPUT: false

INPUT: Query: recorded result category for CCN(CCO)CCNc1ccc(C)c2sc3cc(OC)ccc3c(=O)c12 in this test
OUTPUT: false

INPUT: Write down the call the test reported for this compound. Item: CNCCCNCCCCNCCCN1C(=O)c2ccc3c4c(ccc(c24)C1=O)C(=O)N(CCCNCc1ccccc1OC)C3=O
OUTPUT: false

INPUT: Recorded test outcome, item COc1cc2c(cc1OC)C(Cc1cc(OC)c(OC)cc1[N+](=O)[O-])=NCC2
OUTPUT: false

INPUT: GET /call?item= COc1ccc(-c2nc(SCC(C)C)nc(Nc3ccc(C)cc3)c2C#N)cc1 returns the recorded outcome of this test.
OUTPUT: false

INPUT: Query: recorded result category for COc1cccc(NC(=O)NCCNc2nccc(-c3c(-c4ccc(F)cc4)nc4sccn34)n2)c1 in this test
OUTPUT: false

INPUT: Outcome? Cc1ccc(C(=O)Nc2ccc(CN3CCN(C)CC3)c(C(F)(F)F)c2)cc1C#Cc1cncc2ncccc12
OUTPUT: true

Next:
INPUT: Per the assay record, what outcome was assigned to CCCCCCCCCCCCCCCCCC1=NCCN1CCNC(C)=O ?
OUTPUT: false

INPUT: Just curious, what result did c1ccc(-c2cn3ccnc3c(-c3ccc4ncn(C5CCCCC5)c4c3)n2)cc1 get here?
OUTPUT: false

INPUT: Hey, what did the test say about COC(=O)/C(Br)=C/c1c[nH]c2ccc(Br)cc12 ?
OUTPUT: false

----------
Tested on: DU-145 prostate
Assay: NCI-60 one-dose screen, 48 h (100 = growth as untreated, 0 = no growth, -100 = all killed)
Details: 10 µM unless noted
About 83,000 compounds went through this panel and 20% of them were active in at least one assay; those are over-represented in the sample as a whole.
Output Yes for growth not less than 50%; output No otherwise.

INPUT: Check if growth >= 50% (inclusive). Item: COC(=O)c1ccc2[nH]c(O)c(C(=Nc3ccc(N(C)C(=O)CN4CCN(C)CC4)cc3)c3ccc(CCO)cc3)c2c1
OUTPUT: Yes

INPUT: Tell me whether growth is at least 50% here: COc1ccc2cn3c4ccc(O)cc4[nH]c(=O)c3c2c1
OUTPUT: No

INPUT: Does COc1ccc(-c2nc(SCC(C)C)nc(Nc3ccccc3)c2C#N)cc1 have a reported growth of at least 50%?
OUTPUT: Yes

---
INPUT: Reported growth at or above 50%? Nc1nc2cc(O)ccc2n2cc3c(F)cccc3c12
OUTPUT: No

INPUT: State whether the measured growth reaches 50%, counting equality as reaching it, for CCCCCCCCCCN1CC2CCCCC2C1 (stereo not given)
OUTPUT: Yes

INPUT: Kindly determine if growth recorded for O=C(Nc1cccc2[nH]c(C(F)(F)F)nc12)c1ccc(F)cc1 is above or exactly 50%.
OUTPUT: Yes

INPUT: Is growth at least 50%? Consider Nc1nc2c(c3ncncc13)C(c1cccc(C(F)(F)F)c1)Cc1ncncc1-2 (stereo not given)
OUTPUT: No

INPUT: Is reported growth greater than or equal to 50% here: COc1cc(-c2nn(-c3ccc(NC(=O)c4ccc(Cl)c(C(F)(F)F)c4)cc3)cc2-c2ccncc2)ccc1Cl
OUTPUT: No

INPUT: Entry CCC(C)CC(N)O (stereo not given) : is its growth no less than 50%?
OUTPUT: Yes

INPUT: Hi, just wondering whether CCCCCCCCCc1cc[n+](CC(=O)c2ccc([N+](=O)[O-])cc2)cc1 shows growth of 50% or higher.
OUTPUT: No

----------
Test system: SK-MEL-28 melanoma
Assay: NCI-60 one-dose screen, 48 h
Conditions: 10 µM unless noted
This is part of a sample that, as a whole, favours compounds with a hit. Of some 83,000 tested, about 20% had one in any assay. Activity calls are given as the source filed them. The calls were made as follows: active = growth percent below 10; inactive = the rest.
Hi! Could you answer with just one of these? true (active), false (inactive)

INPUT: For this molecule, state the assay outcome: CC(O)CN(CC(C)O)N(CC(C)O)CC(C)O (centres undefined)
OUTPUT: false

---
INPUT: What classification did COc1cc(OC)c(/C=C/c2ccc3ccccc3[n+]2C)c(OC)c1 end up with in this test?
OUTPUT: true

INPUT: Recorded test outcome, item CCCCCCCCC(=O)Nc1ccc(O)cc1
OUTPUT: false

INPUT: // return assay outcome for COc1ccc(-c2nnc(SCC(=O)Nc3ccc(C(=O)/C=C/c4cc(OC)c(OC)c(OC)c4)cc3)n2-c2ccccc2)cc1OC
OUTPUT: false

----------
Test system: T-47D breast
Experiment: NCI-60 one-dose screen, 48 h (100 = growth as untreated, 0 = no growth, -100 = all killed)
Details: 10 µM unless noted
Compounds without any hit were thinned out: in the full panel of roughly 83,000, 20% have a hit.
observable: growth (%)
Please give a number only; it is taken to be in %.

INPUT: Note down growth recorded for CC(=O)NNC(=O)c1sc(NC(C)=O)nc1C
OUTPUT: 76.5

Further cases:
INPUT: Quick one: give measured growth for CCS(=O)(=O)N[C@@H]1O[C@H](COC(C)=O)C(OC(C)=O)[C@H](OC(C)=O)C1OC(C)=O (stereo partly drawn)
OUTPUT: 90.7

INPUT: Tell us which growth value is on record for O=c1oc2ccc3ccccc3c2cc1-c1ccnc2[nH]c(=S)[nH]c(=O)c12
OUTPUT: 103

INPUT: Supply growth value. Item: COc1cc(/C=C/C(=O)c2ccc(F)cc2)ccc1OCCCCOc1cc2c(cc1OC)C(=O)N1CCCC1C=N2 (stereo not drawn)
OUTPUT: 1.74

INPUT: Using the record for CC(=O)/C(=C/c1ccc(-c2ccccc2)cc1)C(=O)c1ccccc1 , state its measured growth.
OUTPUT: 48.6

INPUT: Give the reported growth for this molecule. CCCCCCCCCC[N+](C)(C)C
OUTPUT: 27.3
